- system tested: Human CCR3 (Homo sapiens)
- Construct: The cloned CCR3 cDNA was constructed with pcDNA3 vector and transfected into a K562 cell line; expressed in transfected cells
- Sequence (P51677 whole entry): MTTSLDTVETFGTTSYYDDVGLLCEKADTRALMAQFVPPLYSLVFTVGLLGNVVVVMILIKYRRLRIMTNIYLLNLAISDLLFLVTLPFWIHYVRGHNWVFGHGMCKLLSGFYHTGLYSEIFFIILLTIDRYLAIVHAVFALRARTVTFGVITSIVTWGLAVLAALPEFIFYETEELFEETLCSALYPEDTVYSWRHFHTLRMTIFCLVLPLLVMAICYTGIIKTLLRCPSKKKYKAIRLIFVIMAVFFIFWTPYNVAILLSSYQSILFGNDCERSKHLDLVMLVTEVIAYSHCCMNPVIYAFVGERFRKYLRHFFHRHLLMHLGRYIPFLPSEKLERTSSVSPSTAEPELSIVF
- experiment: Receptor binding assay (RBA), [125I]-eotaxin on human CCR3-transformed K562 cells
- condition parameters: compounds of about 40 to 90% purity, read-out: Activity grade CCR3
readout label: IC50

# get_value(readout='IC50', item= N#Cc1ccc(Oc2cc(Cl)cc(Cl)c2)c(S(=O)(=O)N2CCC(N3C[C@H](O)[C@@H](O)C3)CC2)c1 )
100 to 500 nM

Also need N#Cc1ccc(Oc2cc(Cl)cc(Cl)c2)c(S(=O)(=O)N2CCNC[C@@H]2Cc2c[nH]c3ccccc23)c1 , thanks.
< 100 nM

Also need N#Cc1ccc(Oc2cc(Cl)cc(Cl)c2)c(S(=O)(=O)N2CCNCC2CN2C(=O)CCC2=O)c1 (stereo not drawn) , thanks.
< 100 nM

Also need N#Cc1ccc(Oc2cc(Cl)cc(Cl)c2)c(S(=O)(=O)N2CCN[C@@H](Cc3c[nH]c4ccccc34)C2)c1 , thanks.
< 100 nM

Also need CC(=O)NCC1CN(S(=O)(=O)c2cc(C#N)ccc2Oc2cc(Cl)cc(Cl)c2)CCN1 (stereo not drawn) , thanks.
< 100 nM

Also need CC(=O)NCC1CNCCN1S(=O)(=O)c1cc(C#N)ccc1Oc1cc(Cl)cc(Cl)c1 (stereo not drawn) , thanks.
< 100 nM

Also need N#Cc1ccc(Oc2cc(Cl)cc(Cl)c2)c(S(=O)(=O)N2CCC(N3CCC[C@H]3CO)CC2)c1 , thanks.
< 100 nM

Also need N#Cc1ccc(Oc2cc(Cl)cc(Cl)c2)c(S(=O)(=O)N2CCCCC2)c1 , thanks.
> 500 nM

Also need N#Cc1ccc(Oc2cc(Cl)cc(Cl)c2)c(S(=O)(=O)N2CCC(N3CCC[C@H]3C(=O)O)CC2)c1 , thanks.
< 100 nM

Also need N#Cc1ccc(Oc2cc(Cl)cc(Cl)c2)c(S(=O)(=O)N2CC3CCN(Cc4ccccc4)C3C2)c1 (stereo not drawn) , thanks.
< 100 nM

Also need COC(=O)C1CNCCCN1S(=O)(=O)c1cc(C#N)ccc1Oc1cc(Cl)cc(Cl)c1 (stereo not drawn) , thanks.
< 100 nM

Also need N#Cc1ccc(Oc2cc(Cl)cc(Cl)c2)c(S(=O)(=O)N2CCNC(CN3C(=O)CCC3=O)C2)c1 (stereo not drawn) , thanks.
< 100 nM

Also need N#Cc1ccc(Oc2cc(Cl)cc(Cl)c2)c(S(=O)(=O)C2CCNCC2)c1 , thanks.
> 500 nM

Also need N#Cc1ccc(Oc2cc(Cl)cc(Cl)c2)c(S(=O)(=O)N2CCCCC2CN2CCC(O)C2)c1 (stereo not drawn) , thanks.
100 to 500 nM

Also need CS(=O)(=O)NCC1CN(S(=O)(=O)c2cc(C#N)ccc2Oc2cc(Cl)cc(Cl)c2)CCCN1 (stereo not drawn) , thanks.
< 100 nM

====

Give pIC50 for every item shown.
- system tested: Human CCR3 (Homo sapiens)
- Construct: The cloned CCR3 cDNA was constructed with pcDNA3 vector and transfected into a K562 cell line; expressed in transfected cells
- experiment: Calcium mobilization assay (Ca2+), eotaxin-stimulated human CCR3-transformed K562 cells
- Assay type: cell-based
- condition parameters: compounds of about 40 to 90% purity, read-out: Activity grade IC50
pIC50: −log10 of the molar value. Counter-ions that a name gives are not always drawn.

What measured pIC50 is associated with N#Cc1ccc(Oc2cc(Cl)cc(Cl)c2)c(S(=O)(=O)N(CCN2CCCC2)C2CCCC2)c1 on Human CCR3 (Homo sapiens)?
> 7.00

Also need N#Cc1ccc(Oc2cc(Cl)cc(Cl)c2)c(S(=O)(=O)N2CCNCC2CN2C(=O)CCC2=O)c1 (centres unmarked) , thanks.
> 7.00

Also need CC(C)(O)[C@@H]1CCCN1C1CCN(S(=O)(=O)c2cc(C#N)ccc2Oc2cc(Cl)cc(Cl)c2)CC1 , thanks.
> 7.00

Also need CS(=O)(=O)NCC1CNCCN1S(=O)(=O)c1cc(C#N)ccc1Oc1cc(Cl)cc(Cl)c1 (centres unmarked) , thanks.
> 7.00

Also need N#Cc1ccc(Oc2cc(Cl)cc(Cl)c2)c(S(=O)(=O)N[C@@H]2CN3CCC2CC3)c1 , thanks.
> 7.00

Also need COC(=O)C1CNCCCN1S(=O)(=O)c1cc(C#N)ccc1Oc1cc(Cl)cc(Cl)c1 (centres unmarked) , thanks.
> 7.00

Also need N#Cc1ccc(Oc2cc(Cl)cc(Cl)c2)c(S(=O)(=O)N(CCN2C(=O)CCC2=O)[C@H]2CN3CCC2CC3)c1 , thanks.
< 6.30

Also need N#Cc1ccc(Oc2cc(Cl)cc(Cl)c2)c(S(=O)(=O)N2CCC(N3CCCC3)C(CN3C(=O)CCC3=O)C2)c1 (centres unmarked) , thanks.
> 7.00

Also need CS(=O)(=O)NCC1CNCCCN1S(=O)(=O)c1cc(C#N)ccc1Oc1cc(Cl)cc(Cl)c1.Cl (centres unmarked) , thanks.
> 7.00

Also need N#Cc1ccc(Oc2cc(Cl)cc(Cl)c2)c(S(=O)(=O)N2CC[C@H](NCCO)C2)c1 , thanks.
> 7.00

Also need N#Cc1ccc(Oc2cc(Cl)cc(Cl)c2)c(S(=O)(=O)N2CCC(N3CCC[C@H]3CO)CC2)c1 , thanks.
> 7.00

Also need Cl.N#Cc1ccc(Oc2cc(Cl)cc(Cl)c2)c(S(=O)(=O)N2CCNC(Cn3cncn3)C2)c1 (centres unmarked) , thanks.
> 7.00

Also need N#Cc1ccc(Oc2cc(Cl)cc(Cl)c2)c(S(=O)(=O)N2CCNC[C@@H]2Cc2c[nH]c3ccccc23)c1 , thanks.
> 7.00

Also need N#Cc1ccc(Oc2cc(Cl)cc(Cl)c2)c(S(=O)(=O)NC2CN(Cc3ccccc3)CCN(Cc3ccccc3)C2)c1 , thanks.
< 6.30

Also need N#Cc1ccc(Oc2cc(Cl)cc(Cl)c2)c(S(=O)(=O)N2CCN[C@@H](Cc3c[nH]c4ccccc34)C2)c1 , thanks.
> 7.00

Also need CC(=O)c1ccc(Oc2cc(Cl)cc(Cl)c2)c(S(=O)(=O)N2CCNCC2)c1 , thanks.
> 7.00

Also need N#Cc1ccc(Oc2cc(Cl)cc(Cl)c2)c(S(=O)(=O)N2CCNCC2Cn2cncn2)c1 (centres unmarked) [Example 1-4, hydrochloride] , thanks.
> 7.00

Also need N#Cc1ccc(Oc2cc(Cl)cc(Cl)c2)c(S(=O)(=O)N2CCCCC2CN2CCC(O)C2)c1 (centres unmarked) , thanks.
> 7.00

Also need N#Cc1ccc(Oc2cc(Cl)cc(Cl)c2)c(S(=O)(=O)N2CCC(N3CCC[C@H]3C(=O)O)CC2)c1 , thanks.
6.30 to 7.00

Also need N#Cc1ccc(Oc2cc(Cl)cc(Cl)c2)c(S(=O)(=O)N2CCC(N3C[C@H](O)[C@@H](O)C3)CC2)c1 , thanks.
> 7.00

Also need CN(C)CC(NS(=O)(=O)c1cc(C#N)ccc1Oc1cc(Cl)cc(Cl)c1)C(=O)O (centres unmarked) , thanks.
< 6.30

Also need N#Cc1ccc(Oc2cc(Cl)cc(Cl)c2)c(S(=O)(=O)N[C@H]2CN3CCC2CC3)c1 , thanks.
> 7.00

Also need CC(=O)NCC1CNCCN1S(=O)(=O)c1cc(C#N)ccc1Oc1cc(Cl)cc(Cl)c1 (centres unmarked) , thanks.
> 7.00

Also need N#Cc1ccc(Oc2cc(Cl)cc(Cl)c2)c(S(=O)(=O)N[C@@H]2CC3OC3C[C@@H]2N)c1 (some centres unmarked) , thanks.
< 6.30

Also need CN(C)CCN(C)CCN(C)S(=O)(=O)c1cc(C#N)ccc1Oc1cc(Cl)cc(Cl)c1 , thanks.
6.30 to 7.00

Also need CCN1CCCN(S(=O)(=O)c2cc(C#N)ccc2Oc2cc(Cl)cc(Cl)c2)C(C(=O)OC)C1 (centres unmarked) , thanks.
> 7.00

Also need Cl.Cl.N#Cc1ccc(Oc2cc(Cl)cc(Cl)c2)c(S(=O)(=O)N2CCNC(CN)C2)c1 (centres unmarked) , thanks.
< 6.30

Also need CS(=O)(=O)NCC1CN(S(=O)(=O)c2cc(C#N)ccc2Oc2cc(Cl)cc(Cl)c2)CCCN1 (centres unmarked) , thanks.
> 7.00

Also need N#Cc1ccc(Oc2cc(Cl)cc(Cl)c2)c(S(=O)(=O)N2CC[C@H](N3C[C@H](O)[C@@H](O)C3)C2)c1 , thanks.
6.30 to 7.00

====

- system tested: Human CCR3 (Homo sapiens)
- Construct: The cloned CCR3 cDNA was constructed with pcDNA3 vector and transfected into a K562 cell line; expressed in transfected cells
- experiment: Receptor binding assay (RBA), [125I]-eotaxin on human CCR3-transformed K562 cells
- condition parameters: compounds of about 40 to 90% purity, read-out: Activity grade CCR3
pIC50: −log10 of the molar value.
readout label: pIC50

# get_value(readout='pIC50', item= COC(=O)C1CN(S(=O)(=O)c2cc(C#N)ccc2Oc2cc(Cl)cc(Cl)c2)CCCN1 (stereo not shown) )
6.30 to 7.00

Also need N#Cc1ccc(Oc2cc(Cl)cc(Cl)c2)c(S(=O)(=O)N2CCC(N3CCCC3)C(CN3C(=O)CCC3=O)C2)c1 (stereo not shown) , thanks.
> 7.00

Also need N#Cc1ccc(Oc2cc(Cl)cc(Cl)c2)c(S(=O)(=O)N(CCN2CCCC2)C2CCCC2)c1 , thanks.
6.30 to 7.00

Also need N#Cc1ccc(Oc2cc(Cl)cc(Cl)c2)c(S(=O)(=O)N[C@H]2CN3CCC2CC3)c1 , thanks.
> 7.00

Also need CC(C)(O)[C@@H]1CCCN1C1CCN(S(=O)(=O)c2cc(C#N)ccc2Oc2cc(Cl)cc(Cl)c2)CC1 , thanks.
> 7.00

Also need CS(=O)(=O)NCC1CN(S(=O)(=O)c2cc(C#N)ccc2Oc2cc(Cl)cc(Cl)c2)CCN1 (stereo not shown) , thanks.
> 7.00

Also need N#Cc1ccc(Oc2cc(Cl)cc(Cl)c2)c(S(=O)(=O)N2CCC[C@H]2CN2CCC[C@H]2CO)c1 , thanks.
> 7.00

// data source = patent US9206186B2
